target-system: H1 histamine receptor (Homo sapiens, UniProt P35367)
Sequence (P35367 whole entry): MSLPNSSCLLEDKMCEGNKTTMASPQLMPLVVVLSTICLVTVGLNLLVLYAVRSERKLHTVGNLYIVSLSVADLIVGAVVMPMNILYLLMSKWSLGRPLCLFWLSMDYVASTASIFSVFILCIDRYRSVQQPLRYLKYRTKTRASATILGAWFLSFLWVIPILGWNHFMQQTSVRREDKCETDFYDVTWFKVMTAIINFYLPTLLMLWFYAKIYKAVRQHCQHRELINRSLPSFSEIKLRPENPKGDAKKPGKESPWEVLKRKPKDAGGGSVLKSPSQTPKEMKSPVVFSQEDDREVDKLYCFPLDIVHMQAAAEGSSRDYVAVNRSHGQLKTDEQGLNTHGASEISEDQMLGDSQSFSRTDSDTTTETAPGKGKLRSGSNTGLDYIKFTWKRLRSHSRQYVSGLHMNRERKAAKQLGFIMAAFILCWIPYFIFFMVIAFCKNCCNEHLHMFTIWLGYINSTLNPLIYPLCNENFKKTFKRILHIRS
measurement-notes: H1 histamine receptor radioligand binding assay (3H-pyrilamine)
condition-label: 3H-pyrilamine radioligand; chlorpheniramine reference; read-out: H1 Ki
pKi: −log10 of the molar value.

compound	pKi
COc1ccc2c(c1)Cc1ccccc1C21CCNC1 (stereo not drawn)	7.40
CCCCCCc1ccc2c(c1)Cc1ccccc1C21CCNC1 (stereo not drawn)	5.80
c1ccc2c(c1)Sc1ccccc1C21CCNC1 [Compound 36, Spiro[thioxanthenyl]-9,3′-pyrrolidine]	8.22
c1ccc2c(c1)Cc1ccccc1C21CCNC1	8.07
c1ccc2c(c1)Oc1ccccc1C21CCNC1 [Compound 30, Spiro[xanthenyl]-9,3′-pyrrolidine]	7.29
COc1ccc2c(c1)Cc1ccccc1C21CCN(Cc2ccccc2)C1 (stereo not drawn)	7.13
